tested on: IGROV-1 human ovarian adenocarcinoma cell line; assay: cells
Listed compounds paired with reported pIC50
Please treat pIC50 as minus the base-10 logarithm of the molar concentration.

compound: CO[C@@]12[C@H](COC(N)=O)C3=C(C(=O)C(C)=C(N)C3=O)N1C[C@@H]1N[C@@H]12 [Mitomycin C, mitomycin C]
measurement-name: pIC50
recorded-value: 5.52

Query: Sample O=C1[O][Pt]2([NH][C@@H]3CCCC[C@H]3[NH]2)[O]C1=O [Oxaliplatin, oxaliplatin] — what was its pIC50?
Reply: 5.07

----------
test system: RXF-393 human kidney carcinoma cell line; test: cells; details: Homo sapiens, RXF 393, 72 h
Listed molecules paired with reported IC50
Lab book: enter the figure in nM, no units written.

structure-smiles-string: COc1cc2c(cc1O)CCN[C@]21CS[C@@H]2c3c(OC(C)=O)c(C)c4c(c3[C@H](COC1=O)N1[C@@H]2[C@H]2c3c(cc(C)c(OC)c3O)C[C@@H]([C@@H]1O)N2C)OCO4
tested-target: RXF-393 human kidney carcinoma cell line
IC50, nM: 9.6

Please find the next molecule below.
Query: Sample CC(=O)O[C@@]12CO[C@@H]1C[C@H](O)[C@@]1(C)C(=O)[C@H](O)C3=C(C)[C@@H](OC(=O)[C@H](O)[C@@H](NC(=O)OC(C)(C)C)c4ccccc4)C[C@@](O)([C@@H](OC(=O)c4ccccc4)[C@H]21)C3(C)C — what was its IC50?
Reply: 0.594
